TARGET_UNDER_TEST: PHD1 (EGLN2) (Homo sapiens (Human))
Sequence (Q96KS0 whole entry): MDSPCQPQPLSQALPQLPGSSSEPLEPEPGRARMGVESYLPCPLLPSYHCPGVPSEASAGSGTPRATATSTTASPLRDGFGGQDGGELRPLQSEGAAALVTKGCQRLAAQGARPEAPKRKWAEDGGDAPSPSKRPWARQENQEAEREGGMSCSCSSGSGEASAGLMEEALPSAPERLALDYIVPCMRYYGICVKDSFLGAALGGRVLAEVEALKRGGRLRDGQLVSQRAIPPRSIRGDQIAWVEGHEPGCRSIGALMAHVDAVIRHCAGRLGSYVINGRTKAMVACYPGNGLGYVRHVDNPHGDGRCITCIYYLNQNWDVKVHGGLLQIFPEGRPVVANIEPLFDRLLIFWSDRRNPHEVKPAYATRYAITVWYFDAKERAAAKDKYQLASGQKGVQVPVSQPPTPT
PROTOCOL_DESCRIPTION: HIF-PH assay (14CO2 capture), PHD1 enzyme inhibition
Type: biochemical
TEST_CONDITIONS: Table 1; individual measurement; read-out: IC50 (μM) PHD1
READOUT_KIND: IC50 (µM)

Consider the worked cases shown below.
compound="N#Cc1nc(C(=O)NCC(C(=O)O)C2CC2)c(O)c2ccc(Oc3c(F)cccc3F)cc12 (centres unmarked) [Compound 180]" recorded_result=4.57
compound="O=C(NCC1(C(=O)O)CCOCC1)c1ncc2cc(Oc3ccccc3)ccc2c1O [Compound 15]" recorded_result=9.71
compound="Cc1nc(C(=O)NCCC(=O)O)c(O)c2ccc(Oc3ccccc3)cc12 [Compound 108]" recorded_result=29
compound="O=C(O)CCNC(=O)c1ncc2cc(Oc3cccnc3)ccc2c1O [Compound 24]" recorded_result=2.31
compound="N#Cc1ccc([C@H](CC(=O)O)NC(=O)c2nc(C#N)c3cc(Oc4ccccc4)ccc3c2O)cc1 [Compound 172]" recorded_result=2.83

I: N#Cc1nc(C(=O)NCCC(=O)O)c(O)c2ccc(Oc3ccccc3)cc12 [Compound 10]
II: N#Cc1nc(C(=O)NC[C@H](Cc2ccccc2)C(=O)O)c(O)c2ccc(Oc3ccccc3)cc12 [Compound 49]
Quick check, higher IC50 between I and II ? Please reply using the label of the selected record.
II

====

TARGET_UNDER_TEST: PHD2 (EGLN1) (Homo sapiens (Human), UniProt Q9GZT9)
Sequence (Q9GZT9 whole entry): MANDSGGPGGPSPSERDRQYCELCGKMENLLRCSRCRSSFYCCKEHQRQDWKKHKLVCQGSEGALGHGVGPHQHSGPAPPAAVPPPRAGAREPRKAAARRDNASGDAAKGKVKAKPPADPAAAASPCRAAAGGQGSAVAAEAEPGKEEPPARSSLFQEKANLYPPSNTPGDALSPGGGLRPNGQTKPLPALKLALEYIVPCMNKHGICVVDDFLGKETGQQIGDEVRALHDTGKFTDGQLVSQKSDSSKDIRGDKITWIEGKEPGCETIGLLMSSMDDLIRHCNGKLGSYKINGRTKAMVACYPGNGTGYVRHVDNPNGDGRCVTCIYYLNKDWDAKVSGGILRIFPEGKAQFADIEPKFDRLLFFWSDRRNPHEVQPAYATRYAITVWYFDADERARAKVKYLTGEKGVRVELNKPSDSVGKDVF
PROTOCOL_DESCRIPTION: HIF-PH assay (14CO2 capture), PHD2 enzyme inhibition
Assay type: biochemical
TEST_CONDITIONS: Table 1; individual measurement; read-out: IC50 (μM) PHD2
READOUT_KIND: IC50 (µM)

compound=N#Cc1nc(C(=O)NC[C@H](NC(=O)OCc2ccccc2)C(=O)O)c(O)c2ccc(Oc3ccccc3)cc12 units_text=µM recorded_result=27.5
compound=O=C(O)CCCNC(=O)c1ncc2cc(NC(=O)NC3CCCCC3)ccc2c1O units_text=µM recorded_result=77.6
compound=N#Cc1nc(C(=O)NCC2(C(=O)O)CC2)c(O)c2ccc(Oc3ccccc3)cc12 units_text=µM recorded_result=1.62

I: CC(C)(CNC(=O)c1nc(C#N)c2cc(Oc3ccc(F)cc3Cl)ccc2c1O)C(=O)O
II: CC(C)(CC(=O)O)NC(=O)c1nc(C#N)c2cc(OCc3ccccc3)ccc2c1O
# query: argmin of IC50 over I and II Please reply using the label of the selected record.
I
(I: 5.55 µM, II: 55.1 µM)

P: N#Cc1nc(C(=O)N[C@H](CC(=O)O)c2cccnc2)c(O)c2ccc(Oc3ccccc3)cc12
Q: O=C(O)CCCCNC(=O)c1ncc2cc(Oc3ccccc3)ccc2c1O
R: CC(CCC(=O)O)NC(=O)c1nc(C#N)c2cc(Oc3ccccc3)ccc2c1O (centres unmarked)
Falling order of IC50, please. Answer by naming the labels in the order asked.
Q, P, R

a: O=C(O)CCCNC(=O)c1ncc2cc(-c3ccc(F)cc3)ccc2c1O
b: CC(C)CC(CNC(=O)c1nc(C#N)c2cc(Oc3ccccc3)ccc2c1O)CC(=O)O (centres unmarked)
c: N#Cc1nc(C(=O)NCCCCC(=O)O)c(O)c2ccc(Oc3ccc(F)cc3Cl)cc12
d: C[C@H](C(=O)O)[C@@H](C)NC(=O)c1nc(C#N)c2cc(Oc3ccccc3)ccc2c1O
Falling order of IC50, please. Answer by naming the labels in the order asked.
d, a, b, c

I: N#Cc1nc(C(=O)NC(CC(=O)O)c2ccc(Cl)cc2)c(O)c2ccc(Oc3ccccc3)cc12 (centres unmarked)
II: O=C(O)CCNC(=O)c1ncc2cc(Oc3ccccc3)ccc2c1O
III: C[C@H](NC(=O)c1nc(C#N)c2cc(Oc3ccccc3)ccc2c1O)[C@H](C)C(=O)O
IV: C[C@@H](CNC(=O)c1nc(C#N)c2cc(Oc3ccccc3)ccc2c1O)C(=O)O
Please order the records by their reported IC50, lowest number first. Answer by naming the labels in the order asked.
IV, II, I, III

Cited source: patent US9409892B2
